All values here come from patent US8946266B2.

System: Aβ42
Experiment: γ-secretase-modulating activity, Method 2: Aβ42 Alphalisa in supernatant of SKNBE2 cells carrying APP 695-wild type (Table 3b)
Format: cell-based
Conditions: overnight
Classification by IC50 | ranges: 0 = under 60 nM, 1 = from 60 nM up to 300 nM, 2 = 300 nM and over

{"Chemical string": "COc1cc(-c2nc(Nc3cccc(C(F)(F)F)c3)n(C)n2)ccc1-n1cnc(C)n1", "Class name": 1}
{"Chemical string": "COc1nc(-c2nc(Nc3cccc(C(F)(F)F)c3F)n(C)n2)ccc1-n1cnc(C)c1", "Class name": 0}
{"Chemical string": "COc1cc(-c2nc(Nc3cccc(OC(F)(F)F)c3)n(C)n2)ccc1-n1cnc(C)c1", "Class name": 0}
{"Chemical string": "COc1cc(-c2nc(Nc3cccnc3OC)n(C)n2)ccc1-n1cnc(C)c1", "Class name": 2}
{"Chemical string": "COc1cc(-c2nc(Nc3cccnc3)n(C)n2)ccc1-n1cnc(C)c1", "Class name": 2}
{"Chemical string": "COc1cc(-c2nc(C)c(-c3cccc(C(F)(F)F)c3)n2C)ccc1-n1cnc(C)c1", "Class name": 2}
{"Chemical string": "COc1cc(-c2nc(-c3cc(Cl)ccc3C)n(C)n2)ccc1-n1cnc(C)c1", "Class name": 1}
{"Chemical string": "COc1cc(-c2nc3c(-c4ccccc4Cl)cccn3n2)ccc1-n1cnc(C)c1", "Class name": 1}
{"Chemical string": "COc1cc(-c2nc(Nc3cccc(C(F)(F)F)c3)n(C)n2)ccc1-n1cnc(C)c1", "Class name": 0}

###

System: Aβ42
Test: γ-secretase-modulating activity, Method 2: Aβ42 Alphalisa in supernatant of SKNBE2 cells carrying APP 695-wild type (Table 3b)
Type: cell-based
Details: overnight
Define the label as Yes when IC50 is strictly less than 50 nM and as No in all remaining cases.

{"Compound": "COc1cc(-c2nc(Nc3cc(F)ccc3C(F)(F)F)n(C)n2)ccc1-n1cnc(C)c1 [Compound 168]", "Class name": "No"}
{"Compound": "COc1cc(C(F)(F)F)cc(Nc2nc(-c3ccc(-n4cnc(C)c4)c(OC)n3)nn2C)c1F [Compound 353]", "Class name": "Yes"}
{"Compound": "COc1cc(-c2nc(Nc3cccc(C)c3F)n(C)n2)ccc1-n1cnc(C)c1 [Compound 161]", "Class name": "No"}
{"Compound": "COc1cc(F)c(C(F)(F)F)cc1Nc1nc(-c2ccc(-n3cnc(C)c3)c(OC)c2)nn1C [Compound 220]", "Class name": "No"}
{"Compound": "COc1c(-n2cnc(C)c2)ccc(-c2nc(Nc3cc(C(F)(F)F)ccc3F)n(C)n2)c1F [Compound 320]", "Class name": "Yes"}
{"Compound": "COCCn1nc(-c2ccc(-n3cnc(C)c3)c(OC)c2)nc1Nc1cc(C(F)(F)F)ccc1F [Compound 209]", "Class name": "No"}
{"Compound": "COc1cc(-c2nc(Nc3c(F)ccc(OC)c3F)n(C)n2)ccc1-n1cnc(C)c1 [Compound 196]", "Class name": "No"}

###

Overview of reported log10 IC50 across a group of compounds:
Test system: Aβ42
Assay: γ-secretase-modulating activity, Method 2: Aβ42 Alphalisa in supernatant of SKNBE2 cells carrying APP 695-wild type (Table 3b)
Assay type: cell-based
Details: overnight
Assay endpoint: log10 IC50 (log10 of the value in nM)

{"Compound": "COc1cc(-c2nc(Nc3cc(NC(C)=O)ccc3F)n(C)n2)ccc1-n1cnc(C)c1", "Result number": 2.85}
{"Compound": "COc1cc(-c2nc(Nc3cc(C(F)(F)F)ccc3F)n(C(C)C)n2)ccc1-n1cnc(C)c1", "Result number": 1.32}
{"Compound": "COc1cc(-c2nc(Cc3ccc(F)cc3C(F)(F)F)nn2C)ccc1-n1cnc(C)c1", "Result number": 2.93}
{"Compound": "COc1cc(-c2nc3n(n2)CCC[C@@H]3c2ccc(F)cc2C)ccc1-n1cnc(C)c1 [Compound 332]", "Result number": 2.37}
{"Compound": "COc1cc(-c2nc3n(n2)CCCC3c2ccccc2Cl)ccc1-n1cnc(C)c1 (centres unmarked)", "Result number": 1.32}
{"Compound": "COc1ccc(F)cc1Nc1nc(-c2ccc(-n3cnc(C)c3)c(OC)c2)nn1C", "Result number": 2.33}
{"Compound": "COc1cc(-c2nc(Nc3cccc(C(F)(F)F)c3C)n(C)n2)ccc1-n1cnc(C)c1", "Result number": 1.48}
{"Compound": "COc1cc(-c2nc3n(n2)CCCC3c2c(F)cc(F)cc2F)ccc1-n1cnc(C)c1 (centres unmarked)", "Result number": 2.09}

###

melting point values by entry

{"Compound": "COc1cc(-c2nc3n(n2)CCN(C)C3c2ccccc2C(F)(F)F)ccc1-n1cnc(C)c1 (stereo not shown)", "melting point": "154.26 °C"}
{"Compound": "COc1cc(-c2nc(Nc3ccc(F)cc3C)n(C)n2)ccc1-n1cnc(C)c1", "melting point": "189.7 °C"}
{"Compound": "COc1cc(-c2nc3n(n2)CCCN3c2ccccc2C(F)(F)F)ccc1-n1cnc(C)c1", "melting point": "211.6 °C"}
{"Compound": "COc1cc(-c2nc3n(n2)CCCC3c2ccccc2C(F)(F)F)ccc1-n1cnc(C)c1 (stereo not shown)", "melting point": "218 °C"}

###

{"Compound": "COc1cc(-c2nc3n(n2)CCCC3c2ccc(F)cc2)ccc1-n1cnc(C)c1 (centres unmarked)", "Unit info": "°C", "melting point": 190.5}
{"Compound": "COc1cc(-c2nc(-c3ccccc3Cl)n(C(C)C)n2)ccc1-n1cnc(C)c1", "Unit info": "°C", "melting point": 159}
{"Compound": "COc1cc(-c2nc(C)n(-c3ccc(F)cc3)n2)ccc1-n1cnc(C)c1", "Unit info": "°C", "melting point": 157.3}
{"Compound": "COc1cc(-c2nc(-c3ccc(-n4cnc(C)c4)c(OC)c3)n[nH]2)ccc1Cl", "Unit info": "°C", "melting point": 262.6}
{"Compound": "COc1cc(-c2nc(-c3ccccc3)n(C)n2)ccc1-n1cnc(C)c1", "Unit info": "°C", "melting point": 115.8}
{"Compound": "COc1cc(-c2nc3n(n2)CCOC3c2cc(OC(F)(F)F)ccc2F)ccc1-n1cnc(C)c1 (centres unmarked)", "Unit info": "°C", "melting point": 232.1}
{"Compound": "COc1cc(-c2nc3nccc(-c4ccccc4C(F)(F)F)n3n2)ccc1-n1cnc(C)c1", "Unit info": "°C", "melting point": 191}
{"Compound": "COc1cc(-c2nc3n(n2)CCNC3c2ccccc2C(F)(F)F)ccc1-n1cnc(C)c1 (centres unmarked)", "Unit info": "°C", "melting point": 183}
{"Compound": "COc1cc(-c2nc3n(n2)CCCC3c2ccc(F)cc2C)ccc1-n1cnc(C)c1 (centres unmarked)", "Unit info": "°C", "melting point": 241.8}
{"Compound": "COc1cc(-c2nc(Nc3ccccc3C)n(C)n2)ccc1-n1cnc(C)c1", "Unit info": "°C", "melting point": 159.4}
{"Compound": "COc1nc(-c2nc(Nc3cc(C(F)(F)F)ccc3F)n(C)n2)ccc1-n1cnc(C)c1", "Unit info": "°C", "melting point": 230.1}

###

Test system: Aβ42
Assay: γ-secretase-modulating activity, Method 2: Aβ42 Alphalisa in supernatant of SKNBE2 cells carrying APP 695-wild type (Table 3b)
Type: cell-based
Settings: Homo sapiens, overnight
Description: Screening was carried out using SKNBE2 cells carrying the APP 695-wild type, grown in Dulbecco's Modified Eagle's Medium/Nutrient mixture F-12 (DMEM/NUT-mix F-12) (HAM) provided by Invitrogen (cat no. 10371-029) containing 5% Serum/Fe supplemented with 1% non-essential amino acids, 1-glutamine 2 mM, Hepes 15 mM, penicillin 50 U/ml (units/ml) en streptomycin 50 μg/ml. […] Aβtotal and Aβ42 concentrations were quantified in the cell supernatant using the Aphalisa technology (Perkin Elmer). […]
Threshold check on IC50: strictly below 300 nM is satisfied; on or above 300 nM is not satisfied.

{"Compound": "COc1cc(-c2nc(-c3ccccc3Cl)n(C(C)C)n2)ccc1-n1cnc(C)c1 [Compound 66]", "Class name": "not satisfied"}
{"Compound": "COc1cc(-c2nc(-c3ccccc3)n(C)n2)ccc1-n1cnc(C)c1 [Compound 9]", "Class name": "not satisfied"}
{"Compound": "COc1cc(-c2nc3n(n2)CCCC3(O)c2ccc(F)cc2C)ccc1-n1cnc(C)c1 (stereo not shown) [Compound 269]", "Class name": "satisfied"}
{"Compound": "COc1cc(-c2nc(-c3ccc(F)cc3)n(C(C)C)n2)ccc1-n1cnc(C)c1 [Compound 5]", "Class name": "satisfied"}
{"Compound": "COc1cc(-c2nc(Nc3cc(C(C)(C)O)ccc3F)n(C)n2)ccc1-n1cnc(C)c1 [Compound 175]", "Class name": "satisfied"}
{"Compound": "Cc1cn(-c2ccc(-c3nc(Nc4cccc(C(F)(F)F)c4)n[nH]3)cn2)cn1 [Compound 24]", "Class name": "not satisfied"}
{"Compound": "COc1cc(-c2nc3n(n2)CCC(c2ccccc2C(F)(F)F)N3)ccc1-n1cnc(C)c1 (stereo not shown) [Compound 274]", "Class name": "satisfied"}
{"Compound": "COc1cc(-c2nc(C)c(-c3cccc(C(F)(F)F)c3)[nH]2)ccc1-n1cnc(C)c1 [Compound 12]", "Class name": "satisfied"}
{"Compound": "COc1cc(-c2nc3n(n2)CCCC3c2ccc(F)cc2C)ccc1-n1cnc(C)c1 (stereo not shown) [Compound 258]", "Class name": "satisfied"}
{"Compound": "COc1cc(-c2nc3nccc(-c4ccccc4C(F)(F)F)n3n2)ccc1-n1cnc(C)c1 [Compound 290]", "Class name": "satisfied"}
{"Compound": "COc1cc(-c2n[nH]c(-c3ccc(F)cc3)n2)ccc1-n1cnc(C)c1 [Compound 4]", "Class name": "not satisfied"}
{"Compound": "COc1cc(-c2nc(C3CCc4ccccc4N3)n(C)n2)ccc1-n1cnc(C)c1 (stereo not shown) [Compound 365]", "Class name": "not satisfied"}
{"Compound": "COc1cc(-c2nc3n(n2)CCN(C)C3c2ccccc2C(F)(F)F)ccc1-n1cnc(C)c1 (stereo not shown) [Compound 275]", "Class name": "satisfied"}
{"Compound": "COc1cc(-c2nc3c(-c4ccccc4C(F)(F)F)nccn3n2)ccc1-n1cnc(C)c1 [Compound 294]", "Class name": "not satisfied"}
{"Compound": "COc1cc(-c2nc(C)n(-c3ccccc3C(F)(F)F)n2)ccc1-n1cnc(C)c1 [Compound 19]", "Class name": "satisfied"}
{"Compound": "COc1cc(-c2nc3n(n2)CCCc2ccccc2-3)ccc1-n1cnc(C)c1 [Compound 17]", "Class name": "not satisfied"}
{"Compound": "COc1cc(-c2nc(Nc3ccccc3C(F)(F)F)n(C)n2)ccc1-n1cnc(C)c1 [Compound 157]", "Class name": "satisfied"}
{"Compound": "COc1cc(-c2nc3nc(-c4ccccc4C(F)(F)F)ccn3n2)ccc1-n1cnc(C)c1 [Compound 291]", "Class name": "satisfied"}
{"Compound": "COc1cc(-c2nc3n(n2)CCOC3c2cc(OC(F)(F)F)ccc2F)ccc1-n1cnc(C)c1 (stereo not shown) [Compound 281]", "Class name": "satisfied"}
{"Compound": "COc1cc(-c2nc(-c3ccc(-n4cnc(C)c4)c(OC)c3)n[nH]2)ccc1Cl [Compound 20]", "Class name": "satisfied"}
{"Compound": "COc1cc(-c2nc3n(n2)CCCC3(CO)c2ccc(F)cc2C)ccc1-n1cnc(C)c1 (stereo not shown) [Compound 334]", "Class name": "satisfied"}
{"Compound": "COc1cc(-c2nc3cncc(-c4ccc(F)cc4C)n3n2)ccc1-n1cnc(C)c1 [Compound 295]", "Class name": "not satisfied"}
{"Compound": "COc1cc(-c2nc(N3CCOCC3)n(-c3ccc(F)cc3)n2)ccc1-n1cnc(C)c1 [Compound 71]", "Class name": "not satisfied"}
{"Compound": "COc1cc(-c2nc(-c3ccccc3Cl)n(C)n2)ccc1-n1cnc(C)c1 [Compound 2]", "Class name": "not satisfied"}
{"Compound": "CNc1nc(-c2ccc(-n3cnc(C)c3)c(OC)c2)nn1-c1cccc(C(F)(F)F)c1 [Compound 93]", "Class name": "satisfied"}
{"Compound": "COc1cc(-c2nc(Nc3cccc(C(F)(F)F)n3)n(C)n2)ccc1-n1cnc(C)c1 [Compound 236]", "Class name": "not satisfied"}
{"Compound": "COc1cc(-c2nc(C(=O)c3ccc(F)cc3)n(C)n2)ccc1-n1cnc(C)c1 [Compound 21]", "Class name": "not satisfied"}
{"Compound": "COc1cc(-c2nc(Nc3cc(C(C)=O)ccc3F)n(C)n2)ccc1-n1cnc(C)c1 [Compound 223]", "Class name": "satisfied"}
